Catalogue of substances with associated neutrophils
# Experiment description: Hematology assays in cynomolgus monkeys (Example 45)
# Format: in vivo
# Assay setup: day 43
# Experimental: Groups, each consisting of two male and three female monkeys, were injected subcutaneously with ISIS 416838, ISIS 416850, ISIS 416858, ISIS 416864, or ISIS 417002 in escalating doses. […] Body weights were measured weekly. […]
Number only, in %; omit the unit.

| Substance | Measurement units | Quantitative result |
| --- | --- | --- |
| ISIS 417002: MOE gapmer, nucleobases 1275 to 1318 of SEQ ID NO: 1 (Table 8) (antisense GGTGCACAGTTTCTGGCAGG; MOE gapmer, wing and gap sizes not given here) | % | 57 |

Turning now to a further substance:
For reference, reported neutrophils for ISIS 416850: MOE gapmer, nucleobases 1275 to 1318 of SEQ ID NO: 1 (Table 8) (antisense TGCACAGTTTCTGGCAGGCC; MOE gapmer, wing and gap sizes not given here) stands at 50

---

# Test system: human Factor 11 mRNA
# Experiment description: Dose-dependent inhibition of human Factor 11 in HepG2 cells, electroporation 123.46-10,000 nM (Example 31)
# Assay type: cell-based
# Assay setup: electroporation, 370.37 nM, approx. 16 hours, relative to untreated control cells
Strand notation (5' to 3'): a small letter for the sugar, then the base; units joined by * are phosphorothioate-linked, units joined directly phosphodiester-linked; [ ] holds rarer units or linkages, { } end groups; capitals alone tell only the bases. e = 2'-O-(2-methoxyethyl) (MOE); [5mC] = 5-methylcytosine; d = 2'-deoxy (DNA)
Measured Percent inhibition of Factor 11 mRNA at 370.37 nM accompanies every entry in the list below.
Answer with the number, then the unit.

Solved cases (3 shown):
| Substance | Result |
| --- | --- |
| 445504 (antisense eG*eG*e[5mC]*eA*eT*eT*dG*dG*dT*dG*d[5mC]*dA*d[5mC]*dA*eG*eT*eT*eT*e[5mC]*eT) [compound 445504] | 20% |
| 416849 (antisense eG*e[5mC]*eA*e[5mC]*eA*dG*dT*dT*dT*d[5mC]*dT*dG*dG*d[5mC]*dA*eG*eG*e[5mC]*e[5mC]*eT) [compound 416849] | 5% |
| 416857 (antisense e[5mC]*eG*eG*e[5mC]*eA*dT*dT*dG*dG*dT*dG*d[5mC]*dA*d[5mC]*dA*eG*eT*eT*eT*e[5mC]) [compound 416857] | 20% |

For 445498 (antisense eG*eG*eT*eG*e[5mC]*eA*d[5mC]*dA*dG*dT*dT*dT*d[5mC]*dT*eG*eG*e[5mC]*eA*eG*eG) [compound 445498] the substance record lists Percent inhibition of Factor 11 mRNA at 370.37 nM as 1%

# substance 416851 (antisense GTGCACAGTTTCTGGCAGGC; 5-10-5 gapmer, further chemistry not given here) [compound 416851] ; its Percent inhibition of Factor 11 mRNA at 370.37 nM = 35%

The reported Percent inhibition of Factor 11 mRNA at 370.37 nM of the substance 416860 (antisense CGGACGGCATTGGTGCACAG; 5-10-5 gapmer, further chemistry not given here) [compound 416860] was 28%

Measured Percent inhibition of Factor 11 mRNA at 370.37 nM of 445503 (antisense eG*e[5mC]*eA*eT*eT*eG*dG*dT*dG*d[5mC]*dA*d[5mC]*dA*dG*eT*eT*eT*e[5mC]*eT*eG) [compound 445503] : 0%

Memo: 445522 (antisense eG*e[5mC]*eA*e[5mC]*eA*dG*dT*dT*dT*d[5mC]*dT*dG*dG*e[5mC]*eA*eG*eG*e[5mC]) [compound 445522] , reported Percent inhibition of Factor 11 mRNA at 370.37 nM: 0%

The substance identified as 445531 (antisense eG*eG*e[5mC]*eA*eT*dT*dG*dG*dT*dG*d[5mC]*dA*d[5mC]*eA*eG*eT*eT*eT) [compound 445531] registered its Percent inhibition of Factor 11 mRNA at 370.37 nM at 16%

---

# Design: species or system CD1 mice
# Assay setup: mouse, in vivo
Attribute measured: Half-Life in the liver
Form field: result (number plus unit)

For orientation, consider the following solved cases.
| Substance | Attribute measured | Result |
| --- | --- | --- |
| 416838 (antisense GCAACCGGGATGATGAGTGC; 5-10-5 gapmer, further chemistry not given here) [compound 416838] | Half-Life in the liver | 13 days |
| 416892 (antisense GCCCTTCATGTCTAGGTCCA; 3-14-3 chimeric gapmer, further chemistry not given here) [compound 416892] | Half-Life in the liver | 12 days |
| 416826 (antisense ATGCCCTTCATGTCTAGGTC; 5-10-5 gapmer, further chemistry not given here) [compound 416826] | Half-Life in the liver | 13 days |

Reported Half-Life in the liver ( 416850 (antisense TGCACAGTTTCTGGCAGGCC; 5-10-5 gapmer, further chemistry not given here) [compound 416850] ) = 18 days

// recorded Half-Life in the liver for 417003 (antisense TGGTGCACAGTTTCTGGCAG; 2-13-5 gapmer chemistry, further chemistry not given here) [compound 417003] : 10 days

Looking up 416999 (antisense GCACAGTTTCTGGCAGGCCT; 2-13-5 gapmer chemistry, further chemistry not given here) [compound 416999] , I found its Half-Life in the liver recorded as 9 days

---

# Experiment description: Hematology assays in cynomolgus monkeys (Example 46)
# Format: in vivo
# Assay setup: Day-5
Strand notation (5' to 3'): a small letter for the sugar, then the base; units joined by * are phosphorothioate-linked, units joined directly phosphodiester-linked; [ ] holds rarer units or linkages, { } end groups; capitals alone tell only the bases. e = 2'-O-(2-methoxyethyl) (MOE); [5mC] = 5-methylcytosine; d = 2'-deoxy (DNA)
Attribute measured: MCH (pg)
# unit: pg | format: bare number

| Substance | MCH (pg) |
| --- | --- |
| ISIS 449711: 3-8-3, 4-8-4, 2-10-2, 3-10-3 or 4-10-4 MOE microwalk gapmer (Table 46) (antisense eA*e[5mC]*dA*dG*dT*dT*dT*d[5mC]*dT*dG*dG*d[5mC]*eA*eG) | 22.7 |

For this substance ( ISIS 445522: 5-8-5 or 6-8-6 MOE microwalk gapmer (Table 44) (antisense eG*e[5mC]*eA*e[5mC]*eA*dG*dT*dT*dT*d[5mC]*dT*dG*dG*e[5mC]*eA*eG*eG*e[5mC]) ), measured MCH is 22.5

substance ISIS 445531: 5-8-5 or 6-8-6 MOE microwalk gapmer (Table 44) (antisense eG*eG*e[5mC]*eA*eT*dT*dG*dG*dT*dG*d[5mC]*dA*d[5mC]*eA*eG*eT*eT*eT) , MCH observed: 22.2

Sure, the documented MCH for ISIS 416858: MOE gapmer, nucleobases 1275 to 1318 of SEQ ID NO: 1 (Table 8) (antisense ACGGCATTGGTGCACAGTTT; MOE gapmer, wing and gap sizes not given here) is 23.5

The recorded MCH for ISIS 449710: 3-8-3, 4-8-4, 2-10-2, 3-10-3 or 4-10-4 MOE microwalk gapmer (Table 46) (antisense e[5mC]*eA*e[5mC]*dA*dG*dT*dT*dT*d[5mC]*dT*dG*dG*d[5mC]*eA*eG*eG) is 22.8

---

Entries and their measured Percent inhibition of Factor 11 mRNA at 6,000 nM follow.
# Test system: human Factor 11 mRNA
# Experiment description: Dose-dependent inhibition of human Factor 11 in HepG2 cells, electroporation 375-12,000 nM (Example 32)
# Assay type: cell-based
# Assay setup: electroporation, 6,000 nM, approx. 16 hours, relative to untreated control cells
Strand notation (5' to 3'): a small letter for the sugar, then the base; units joined by * are phosphorothioate-linked, units joined directly phosphodiester-linked; [ ] holds rarer units or linkages, { } end groups; capitals alone tell only the bases. e = 2'-O-(2-methoxyethyl) (MOE); [5mC] = 5-methylcytosine; d = 2'-deoxy (DNA)
Kindly answer with a numeric value in %, unit omitted.

Would you please look over these solved cases?
| Substance | Quantitative result |
| --- | --- |
| 449707 (antisense e[5mC]*eA*e[5mC]*eA*dG*dT*dT*dT*d[5mC]*dT*dG*dG*e[5mC]*eA*eG*eG) [compound 449707] | 85 |
| 416850 (antisense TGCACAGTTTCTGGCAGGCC; 5-10-5 gapmer, further chemistry not given here) [compound 416850] | 90 |
| 449709 (antisense eG*e[5mC]*eA*e[5mC]*dA*dG*dT*dT*dT*d[5mC]*dT*dG*dG*d[5mC]*eA*eG*eG*e[5mC]) [compound 449709] | 92 |
| 449708 (antisense eA*e[5mC]*eA*dG*dT*dT*dT*d[5mC]*dT*dG*dG*e[5mC]*eA*eG) [compound 449708] | 61 |
| 449710 (antisense e[5mC]*eA*e[5mC]*dA*dG*dT*dT*dT*d[5mC]*dT*dG*dG*d[5mC]*eA*eG*eG) [compound 449710] | 82 |

Field Percent inhibition of Factor 11 mRNA at 6,000 nM (entry 445522 (antisense eG*e[5mC]*eA*e[5mC]*eA*dG*dT*dT*dT*d[5mC]*dT*dG*dG*e[5mC]*eA*eG*eG*e[5mC]) [compound 445522] ) reads 81

Input 416858 (antisense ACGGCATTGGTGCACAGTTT; 5-10-5 gapmer, further chemistry not given here) [compound 416858] . Output Percent inhibition of Factor 11 mRNA at 6,000 nM: 90

Form: substance = 449711 (antisense eA*e[5mC]*dA*dG*dT*dT*dT*d[5mC]*dT*dG*dG*d[5mC]*eA*eG) [compound 449711] ; Percent inhibition of Factor 11 mRNA at 6,000 nM = 32

Lab note: 445531 (antisense eG*eG*e[5mC]*eA*eT*dT*dG*dG*dT*dG*d[5mC]*dA*d[5mC]*eA*eG*eT*eT*eT) [compound 445531] gave Percent inhibition of Factor 11 mRNA at 6,000 nM of 91

Source listed as patent US20230263822A1.
